These measurements were taken from ChEMBL document CHEMBL4321832.

Experiment: Inhibition of human CYP51 T314I mutant expressed in Escherichia coli incubated for 1 hr using [3H] lanosterol as substrate by HPLC analysis

{"cpdSmiles": "O=C(N[C@@H](Cn1ccnc1)c1ccc(-c2ccc(F)cc2)cc1Cl)c1ccc(-c2nnc(-c3ccccc3)o2)cc1", "IC50 [nM]": 2100}

----------
Target: CYP51 (lanosterol 14-alpha demethylase) (Homo sapiens)
Sequence (Q16850 whole entry): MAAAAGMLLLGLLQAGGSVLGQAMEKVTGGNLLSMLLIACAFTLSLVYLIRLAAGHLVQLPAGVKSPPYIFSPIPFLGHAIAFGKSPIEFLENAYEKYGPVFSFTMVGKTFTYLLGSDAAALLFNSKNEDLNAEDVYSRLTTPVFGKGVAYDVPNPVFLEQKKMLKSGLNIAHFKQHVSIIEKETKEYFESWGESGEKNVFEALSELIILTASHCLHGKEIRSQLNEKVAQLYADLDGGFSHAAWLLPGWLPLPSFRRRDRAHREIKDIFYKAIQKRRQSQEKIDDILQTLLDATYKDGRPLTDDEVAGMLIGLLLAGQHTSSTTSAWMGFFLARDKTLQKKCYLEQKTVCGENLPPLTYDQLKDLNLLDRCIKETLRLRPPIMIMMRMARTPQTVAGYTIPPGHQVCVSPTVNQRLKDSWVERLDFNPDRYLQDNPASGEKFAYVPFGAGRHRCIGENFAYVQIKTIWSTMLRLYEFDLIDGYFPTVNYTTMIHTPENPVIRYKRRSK
Experiment: Inhibition of recombinant full length human CYP51 expressed in Escherichia coli at inhibitor/enzyme ratio 50/1 incubated for 1 hr using [3H] lanosterol as substrate by HPLC analysis relative to control
Parameters: concentration or dose not given beside the values
Settings: probe [3H] lanosterol
Quick reference for inhibition at 1 h among some compounds
measurementName: inhibition at 1 h (%)

{"cpdSmiles": "CS(=O)(=O)c1cc(Br)cc(-c2nnc(-c3ccc(C(=O)N[C@@H](Cn4ccnc4)c4ccc(-c5ccc(F)cc5)cc4Cl)cc3)o2)c1", "systemUnderTest": "CYP51 (lanosterol 14-alpha demethylase) (Homo sapiens)", "experimentalValue": 89}
{"cpdSmiles": "O=C(N[C@@H](Cn1ccnc1)c1ccc(-c2ccc(F)cc2)cc1Cl)c1ccc(-c2nnc(-c3cc(F)cc(-c4ccccn4)c3)o2)cc1", "systemUnderTest": "CYP51 (lanosterol 14-alpha demethylase) (Homo sapiens)", "experimentalValue": 96}
{"cpdSmiles": "CS(=O)(=O)c1cc(-c2ccccn2)cc(-c2nnc(-c3ccc(C(=O)N[C@@H](Cn4ccnc4)c4ccc(-c5ccc(F)cc5)cc4Cl)cc3)o2)c1", "systemUnderTest": "CYP51 (lanosterol 14-alpha demethylase) (Homo sapiens)", "experimentalValue": 90}
{"cpdSmiles": "O=C(N[C@@H](Cn1ccnc1)c1ccc(-c2ccc(F)cc2)cc1Cl)c1ccc(-c2nnc(-c3ccccc3)o2)cc1", "systemUnderTest": "CYP51 (lanosterol 14-alpha demethylase) (Homo sapiens)", "experimentalValue": 91}
{"cpdSmiles": "O=C(N[C@@H](Cn1ccnc1)c1ccc(-c2ccc(F)cc2)cc1-c1ccccc1)c1ccc(-c2nnc(-c3ccccc3)o2)cc1", "systemUnderTest": "CYP51 (lanosterol 14-alpha demethylase) (Homo sapiens)", "experimentalValue": 41}
{"cpdSmiles": "O=C(N[C@@H](Cn1ccnc1)c1ccc(-c2ccc(F)cc2)cc1Cl)c1ccc(-c2nnc(-c3cc(Br)cc4ccccc34)o2)cc1", "systemUnderTest": "CYP51 (lanosterol 14-alpha demethylase) (Homo sapiens)", "experimentalValue": 73}
{"cpdSmiles": "COc1ccc(-c2cc(-c3ccc(F)cc3)ccc2[C@H](Cn2ccnc2)NC(=O)c2ccc(-c3nnc(-c4ccccc4)o3)cc2)cc1", "systemUnderTest": "CYP51 (lanosterol 14-alpha demethylase) (Homo sapiens)", "experimentalValue": 0}
{"cpdSmiles": "O=C(N[C@@H](Cn1ccnc1)c1ccc(-c2ccc(F)cc2)cc1Cl)c1ccc(-c2nnc(-c3cc(F)cc(-c4ncncc4F)c3)o2)cc1", "systemUnderTest": "CYP51 (lanosterol 14-alpha demethylase) (Homo sapiens)", "experimentalValue": 98}
